- measurement target: human cholecystokinin-2 receptor (CCK-2R) (Homo sapiens)
- Construct: host or cells: 1321-N1 cells (plasma membranes prepared by Evotec AG Hamburg)
- Sequence (P32239 whole entry): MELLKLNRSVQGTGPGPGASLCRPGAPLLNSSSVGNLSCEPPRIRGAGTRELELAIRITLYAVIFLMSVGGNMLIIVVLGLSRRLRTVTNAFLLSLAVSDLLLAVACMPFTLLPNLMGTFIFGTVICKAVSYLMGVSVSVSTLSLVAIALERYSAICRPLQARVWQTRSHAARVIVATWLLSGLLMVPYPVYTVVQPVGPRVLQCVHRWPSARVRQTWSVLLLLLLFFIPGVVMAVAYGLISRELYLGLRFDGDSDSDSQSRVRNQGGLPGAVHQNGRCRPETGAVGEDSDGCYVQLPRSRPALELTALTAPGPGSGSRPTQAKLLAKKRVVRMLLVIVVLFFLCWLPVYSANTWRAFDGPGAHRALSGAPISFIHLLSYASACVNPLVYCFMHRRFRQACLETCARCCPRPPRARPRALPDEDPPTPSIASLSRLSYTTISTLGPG
- test: In vitro potency on CCK-2R, whole cell functional assay (IP1 accumulation, IP-One HTRF)
- Type: cell-based
- reported conditions: 1321-N1 cells stably expressing CCK-2R; IP1 accumulation; highest dose tested 1×10^6 pM; read-out: EC50 (CCK-2R)
pEC50: −log10 of the molar value. Non-standard residues stand in square brackets, D forms with d. Residues, ends and D or L forms follow the SMILES beside them. Phe(4-CH2SO3H) = N[C@@H](Cc1ccc(CS(=O)(=O)O)cc1)C(=O)O; NMeF = CN[C@@H](Cc1ccccc1)C(=O)O; dNMeD = CN[C@H](CC(=O)O)C(=O)O; Nle = CCCC[C@H](N)C(=O)O
property name: pEC50

# compound, property name, result
data = [
    ("CC(C)C[C@H](NC(=O)[C@H](Cc1ccc(OS(=O)(=O)O)cc1)NC(=O)[C@@H](N)CCC(=O)O)C(=O)NCC(=O)N[C@@H](Cc1c[nH]c2ccccc12)C(=O)N[C@@H](CCC(N)=O)C(=O)N(C)[C@H](CC(=O)O)C(=O)N(C)[C@@H](Cc1ccccc1)C(N)=O", "pEC50", "< 6.00"),
    ("CCCC[C@H](NC(=O)[C@H](Cc1ccc(CS(=O)(=O)O)cc1)NC(=O)[C@@H](N)CC(=O)O)C(=O)NCC(=O)N[C@@H](Cc1c[nH]c2ccccc12)C(=O)N[C@@H](CCCC)C(=O)N(C)[C@H](CC(=O)O)C(=O)N(C)[C@@H](Cc1ccccc1)C(N)=O [Example 55] (H-D[Phe(4-CH2SO3H)][Nle]GW[Nle][dNMeD][NMeF]-NH2)", "pEC50", "< 6.00"),
]
